- Test Target: human CCR8 (human, UniProt P51685 1-355)
- Method Description: cell-based or functional assay
residual hCCL1 (100 nM) Gi2 response, protocol #3, mAb 5 µg/mL values by entry
Measurement Type: residual hCCL1 (100 nM) Gi2 response, protocol #3, mAb 5 µg/mL (%)

| Binder | Result Number |
| --- | --- |
| anti-CCR8 mAb 1-24 (antibody, human IgG1, kappa, V domains shown, Humanized mAb, human IgG1 / kappa) VH: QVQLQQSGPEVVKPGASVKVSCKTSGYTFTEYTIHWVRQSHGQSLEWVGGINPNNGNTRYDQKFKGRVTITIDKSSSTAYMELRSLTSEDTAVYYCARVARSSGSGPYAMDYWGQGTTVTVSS VL: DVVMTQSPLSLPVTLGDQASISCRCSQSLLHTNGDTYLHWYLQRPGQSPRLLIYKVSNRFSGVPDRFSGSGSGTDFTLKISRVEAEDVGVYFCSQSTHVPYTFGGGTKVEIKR | 37 |
| anti-CCR8 mAb 1-7 (antibody, V domains shown, Murine hybridoma mAb) VH: QVHLVETGGGLVRPGNSLKLSCVTSGFTLSNYRMHWLRQPPGKRLEWIAVIKVKSDNYGANYAESVKGRFTISRDDAKSSVYLQMNRLREEDTATYYCSRPDGFSPFVYWGQGTLVTVSA VL: DIKMTQSPSSMYASLGERVTITCKASQDINSYLSWFQQKPGKSPKTLIYRANRLVDGVPSRFSGSGSGQDYFLTISSLEYEDMGIYYCLQYGEFPPTFGAGTKLELK | 30 |
| anti-CCR8 mAb 1-9 (antibody, V domains shown, Murine hybridoma mAb) VH: EVQLVESGGGLVQPKGSLKLSCAASGFTFNAYAMNWVRQAPGKGLEWLARIRSKSNNYATYYADSVKDRFTISRDDSQSMFYLQMNNLKSEDTAMYYCVRGREAYYRYDGGYYAMDYWGQGTSVTVSS VL: EIVMTQAALSAPVTPGESVSMSCRSSKSLLHSNGNTYLYWFLQRPGQSPQLLIYRMSNLASGVPDRFSGSGSGTAFTLRISRVEAEDVGVYYCMQHLEYPFTFGSGTKLEIK | 36 |
